B1: TPR t1 (parent)
chain: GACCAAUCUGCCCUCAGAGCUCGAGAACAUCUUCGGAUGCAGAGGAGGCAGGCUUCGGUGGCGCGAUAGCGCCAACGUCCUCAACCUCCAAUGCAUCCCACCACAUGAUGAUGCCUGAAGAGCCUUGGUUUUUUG

Variants of: B1
EXPERIMENTAL DETAILS: polymerase ribozyme fitness, log enrichment relative to wild type (log ratio); higher = more active; in vitro selection for triplet polymerase activity
Output 1 for polymerase ribozyme fitness (log ratio) not less than -1; output -1 otherwise.

Record excerpt, results attached:
G10A G58C A111G | 1
C82A G120U | 1
C40U C98U | -1
G39U G61A C85U | 1
C40G C62U C72A A83G | -1
G19C C62U C64U G120C | -1
C40U A43G G61A C97U | -1
C31G C56G A68U U81A C99G G110C | -1

API: above_or_equal(metric=polymerase ribozyme fitness (log ratio), cutoff=-1) for item G51A C82U C124U
1

Next variant up: C70A C94U A100C
-1

Next variant up: C28A U54A G61U G110U
1

Next variant up: C104G U106A C124G
-1

Next variant up: G63C C85U A111C G122C
-1

Next variant up: A41U U78C
-1

Next variant up: C15A C53U G63C
-1

Next variant up: G48A G60A U78C U109A G110U
-1

Next variant up: G17U C40A G48U C70U C99A G113A G117C
-1

Next variant up: A5G G45C G69A
-1

Next variant up: G93U G122A
-1

Next variant up: G36C C56U
1

Next variant up: C12U A66G A74U
-1

Next variant up: A29G A46U G69U C86U
-1
